target: T1, FimH lectin domain (residues Phe1-Thr158) (Escherichia coli, UniProt P08191 22-179); assay: SPR; single-cycle kinetics on BIAcore T200; ω1-glycoprotein immobilised on a CM5 chip via primary amino groups (EDC/NHS); FimH as analyte at 14.4, 7.17, 3.60, 1.80, 0.9 μM; 20 mM Hepes, 150 mM NaCl, 0.005% Tween; 30 μl/min; 298 K; fit to the Langmuir 1:1 model; details: both partners purified
T1 construct: FimH type-1 fimbrial adhesin of Escherichia coli, lectin domain, residues Phe1-Thr158; No tag is mentioned; also called FimH adhesin; source: E. coli C43(DE3), pET24a vector, purified (sulfopropyl fast flow cation exchange chromatography)
T1 sequence (P08191 22-179): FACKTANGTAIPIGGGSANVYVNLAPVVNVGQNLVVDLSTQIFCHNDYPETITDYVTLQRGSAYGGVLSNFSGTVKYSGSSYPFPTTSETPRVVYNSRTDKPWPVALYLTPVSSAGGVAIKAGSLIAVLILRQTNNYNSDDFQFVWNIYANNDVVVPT
MEASUREMENT LABEL: kon (M⁻¹ s⁻¹)
Write the number in M⁻¹ s⁻¹ without appending the unit.

Sample answers from the record:
>  <BINDER>
omega-1 (ω1) glycoprotein carrying Man3Gn2 (natural protein, N-glycans Man3Gn2 (oligomannose-3, paucimannosidic); sites not stated) QNRWDYYVFSVTWPPTYCESIQCRLPRGLRDFTIHGLWPTIFPNRQPNCTGSLRFDIRRLQGIRNELDLMWPHLKNYRESPSFWKHEFEKHGLCAVEDPQVFNQYGYFKFGIKLMQKLNLLKTLMKYKISPHDSRQYDTINLMNVLEREFGYNGSANCIRKPGRRGMYHLEEVHVCLNRKHEFMNCPFLGNCPKKFIFPPFQ

>  <MEASUREMENT LABEL>
kon

>  <READOUT VALUE>
3890

$$$$
>  <BINDER>
omega-1 (ω1) glycoprotein carrying X1Man3Gn2F1[3] (natural protein, N-glycans X1Man3Gn2F1[3] (oligomannose-3 with β1,2-xylose on mannose 3 and α1,3 core fucose); sites not stated) QNRWDYYVFSVTWPPTYCESIQCRLPRGLRDFTIHGLWPTIFPNRQPNCTGSLRFDIRRLQGIRNELDLMWPHLKNYRESPSFWKHEFEKHGLCAVEDPQVFNQYGYFKFGIKLMQKLNLLKTLMKYKISPHDSRQYDTINLMNVLEREFGYNGSANCIRKPGRRGMYHLEEVHVCLNRKHEFMNCPFLGNCPKKFIFPPFQ

>  <MEASUREMENT LABEL>
kon

>  <READOUT VALUE>
257

$$$$

Read the next record carefully.
Notebook: omega-1 (ω1) glycoprotein carrying Man3Gn2F1[3] (natural protein, N-glycans Man3Gn2F1[3] (α1,3 core-fucosylated oligomannose-3); sites not stated) QNRWDYYVFSVTWPPTYCESIQCRLPRGLRDFTIHGLWPTIFPNRQPNCTGSLRFDIRRLQGIRNELDLMWPHLKNYRESPSFWKHEFEKHGLCAVEDPQVFNQYGYFKFGIKLMQKLNLLKTLMKYKISPHDSRQYDTINLMNVLEREFGYNGSANCIRKPGRRGMYHLEEVHVCLNRKHEFMNCPFLGNCPKKFIFPPFQ , kon read as 525
